Value source: patent US9120787B2

# System: HIV-1Ba-L
# run.description: Inhibition of virus replication in MAGI-CCR5 cells (β-galactosidase reporter)
# Type: cell-based
# assay.setup: HIV-1Ba-L in MAGI-CCR5 cells
property.label: TI (TC50/IC50)

In [3]: df
Out[3]:
                                   compound  study_system         readout_value
0  CC1=C(c2nc(-c3ccc(C#N)cc3)cs2)C(c2cccnc2)NC(=O)N1 (centres unmarked)     HIV-1Ba-L  C (C < 50.0 to 10.0)
1  CC1=C(c2nc(-c3ccc(C#N)cc3)cs2)C(c2ccc(Cl)c(OC(F)(F)F)c2)NC(=O)N1 (centres unmarked)     HIV-1Ba-L          D (D < 10.0)
2  CC1=C(c2nc(-c3ccc(C#N)cc3)cs2)C(c2cc(=O)[nH]c(=O)[nH]2)NC(=O)N1 (centres unmarked)     HIV-1Ba-L          D (D < 10.0)
3  CC1=C(c2nc(-c3ccc(C#N)cc3)cs2)C(Cc2ccccc2)NC(=O)N1 (centres unmarked)     HIV-1Ba-L  C (C < 50.0 to 10.0)

Prompt: State its TI (TC50/IC50) on HIV-1Ba-L: CC1=C(c2nc(-c3ccc(C#N)cc3)cs2)C(c2ccc(F)c(C#N)c2)NC(=O)N1 (centres unmarked)
Completion: C (C < 50.0 to 10.0)

----------
# run.description: Cytotoxicity by MTS staining in PBMCs
# Format: cell-based
# assay.setup: human, peripheral blood mononuclear cells (PBMC), A17 line of the table, read-out: TC50
property.label: CC50 at 7 days

Prompt: Tell me the measured CC50 at 7 days of CC1=C(c2nc(-c3ccc(C#N)cc3C)cs2)C(c2cc3ccccc3n2C)NC(=O)N1 (stereo not drawn) , please.
Completion: ≥ 100 µM

Prompt: For the compound shown here, COc1ccc(-c2csc(C3=C(C)NC(=O)NC3c3ccc(F)c([N+](=O)[O-])c3)n2)cc1 (stereo not drawn) , give the reported CC50 at 7 days.
Completion: ≥ 100 µM

Prompt: What measured CC50 at 7 days goes with CC1=C(c2nc(-c3ccc(C#N)cc3)cs2)C(c2ccc(Br)nc2)NC(=O)N1 (stereo not drawn) ?
Completion: ≥ 100 µM

----------
# Tested on: HIV-1Ba-L
# run.description: HIV-1Ba-L replication in PBMCs (supernatant RT end-point)
# assay.setup: HIV-1Ba-L in PBMCs
property.label: TI (TC50/IC50)

Consider the reported TI (TC50/IC50) for these compounds:
>>> df
                                   compound      readout_value
0  COc1ccc(-c2csc(C3=C(C)NC(=O)NC3c3cc(Br)cs3)n2)cc1 (stereo not shown)       D (D < 10.0)
1  CC1=C(c2nc(-c3ccc(C#N)cc3)cs2)C(c2cccc(C(F)(F)F)c2)NC(=O)N1 (stereo not shown)  C (C < 50.0-10.0)
2  CC1=C(c2nc(-c3ccc(Cl)cc3)cs2)C(c2cccc(O)c2)NC(=O)N1 (stereo not shown)  C (C < 50.0-10.0)
3  Cc1cc(C#N)cc(C)c1Oc1nc(Nc2ccc(C#N)cc2)nc(N)c1Br [TMC-125, Etravirine, reference compound]             >325.0
4  CC1=C(c2nc(-c3ccc(C#N)cc3)cs2)C(c2ccc(=O)[nH]c2)NC(=O)N1 (stereo not shown)       D (D < 10.0)

Prompt: Entry under review: CC1=C(c2nc(-c3ccc(F)cc3)cs2)C(Cc2ccccc2)NC(=O)N1 (stereo not shown) . Reported TI (TC50/IC50)?
Completion: D (D < 10.0)

Prompt: Endpoint output: TI (TC50/IC50) of CC1=C(c2nc(-c3ccc(C#N)cc3)cs2)C(c2cccc(O)c2)NC(=O)N1C (stereo not shown) . Value?
Completion: C (C < 50.0-10.0)

Prompt: Need TI (TC50/IC50), item CC1=C(c2nc(-c3ccc(F)cc3)cs2)C(c2cccc(O)c2)NC(=O)N1 (stereo not shown)
Completion: D (D < 10.0)

Prompt: For Cc1ccc(-c2ccc3c(c2)C=C(C(=O)Nc2ccc(C[N+](C)(C)C4CCOCC4)cc2)CCC3)cc1.[Cl-] [TAK 779, reference compound] , what is its reported TI (TC50/IC50)?
Completion: >29.9

Prompt: # TI (TC50/IC50) lookup, item CC1=C(c2nc(-c3ccc(C#N)cc3)cs2)C(c2cccc(O)c2)NC(=O)N1 (single isomer, unassigned) [Example 34 (enantiomer)]
Completion: D (D < 10.0)

----------
# Test system: HIV-1Ba-L
# run.description: HIV-1Ba-L replication in PBMCs (supernatant RT end-point)
# assay.setup: HIV-1Ba-L in PBMCs
property.label: TI (TC50/IC50)

See these solved cases before continuing.
>>> print(df.to_string())
                                   molecule      readout_value
0  CC1=C(c2nc(-c3ccc(C#N)cc3)cs2)C(c2ccc(Cl)nc2Cl)NC(=O)N1 (stereo not shown)  C (C < 50.0-10.0)
1  CC1=C(c2nc(-c3cccc(O)c3)cs2)C(c2cccc(O)c2)NC(=O)N1 (stereo not shown)       D (D < 10.0)
2  Cc1cn([C@H]2C[C@H](N=[N+]=[N-])[C@@H](CO)O2)c(=O)[nH]c1=O [AZT, reference compound]              >54.9
3  COc1ccc(-c2csc(C3=C(C)NC(=O)NC3c3ccc(-c4ccccc4)cc3)n2)cc1 (stereo not shown)       D (D < 10.0)
4  Cc1nnc(C(=O)NC(C)(C)c2nc(C(=O)NCc3ccc(F)cc3)c(O)c(=O)n2C)o1 [Raltegravir, reference compound]             >371.0
5  CC1=C(c2nc(-c3ccc(Br)cc3)cs2)C(c2cccc(O)c2)NC(=O)N1 (stereo not shown)  C (C < 50.0-10.0)
6  CC1=C(c2nc(-c3ccc4ccccc4c3)cs2)C(c2cccc(O)c2)NC(=O)N1 (stereo not shown)       D (D < 10.0)

# input for lookup
Prompt: Item CC1=C(c2nc(-c3ccc(C#N)cc3)cs2)C(c2ccc(Oc3ccccc3)nc2)NC(=O)N1 (stereo not shown) has what recorded TI (TC50/IC50)?
Completion: C (C < 50.0-10.0)

----------
# run.description: Cytotoxicity by MTS staining in uninfected MAGI-CCR5 cells
# Type: cell-based
# assay.setup: human, read-out: TC50
Assignment: determine reported CC50 at 48 h for the given compounds.

Prompt: Quick one: CC50 at 48 h for CC1=C(c2nc(-c3ccc(Cl)cc3)cs2)C(c2cccc(O)c2)NC(=O)N1 (stereo not drawn) ?
Completion: 50 to 100 µM

Prompt: Any idea what CC50 at 48 h was measured for CC1=C(c2nc(-c3ccc(C#N)cc3)cs2)C(c2ccc(Oc3ccccc3)cc2)NC(=O)N1 (stereo not drawn) ?
Completion: ≥ 100 µM

Prompt: # CC50 at 48 h lookup, item CC1=C(c2nc(-c3ccc(C#N)cc3)cs2)C(c2ccc(C#N)c(F)c2)NC(=O)N1 (stereo not drawn)
Completion: ≥ 100 µM

Prompt: I am curious: what CC50 at 48 h value has been reported for CC1=C(c2nc(-c3ccc(C#N)cc3)cs2)C(c2nccn2C)NC(=O)N1 (stereo not drawn) ?
Completion: ≥ 100 µM

Prompt: Need CC50 at 48 h of CC1=C(c2nc(-c3ccc(C#N)cc3)cs2)C(c2cccc(O)c2)NC(=O)N1C (stereo not drawn) , thanks.
Completion: ≥ 100 µM

Prompt: Requested read-out: CC50 at 48 h. Entry: CC1=C(c2nc(-c3ccc(C#N)cc3)cs2)C(c2ccc(Cl)nc2Cl)NC(=O)N1 (stereo not drawn)
Completion: ≥ 100 µM

Prompt: Entry CC1=C(c2nc(-c3ccc(C#N)cc3)cs2)C(c2ccc(-c3ccccc3)cc2)NC(=O)N1 (stereo not drawn) : reported CC50 at 48 h = ?
Completion: ≥ 100 µM

Prompt: // CC50 at 48 h lookup, key: CC1=C(c2nc(-c3ccc(C(F)(F)F)cc3)cs2)C(c2cccc(O)c2)NC(=O)N1 (stereo not drawn)
Completion: < 50 µM

Prompt: I would be grateful if you could share the reported CC50 at 48 h for CC1=C(c2nc(-c3ccc(C#N)cc3)cs2)C(c2cc(=O)[nH]c(=O)[nH]2)NC(=O)N1 (stereo not drawn) .
Completion: ≥ 100 µM

Prompt: State the recorded CC50 at 48 h for this entry: CC1=C(c2nc(-c3ccc(C#N)cc3)cs2)C(c2cc(O)ccc2O)NC(=O)N1 (stereo not drawn)
Completion: ≥ 100 µM

Prompt: # input compound: CC1=C(c2nc(-c3ccc(C#N)cc3)cs2)C(c2cccc(OC(F)(F)F)c2)NC(=O)N1 (stereo not drawn) ; wanted: its CC50 at 48 h
Completion: ≥ 100 µM

Prompt: Look up CC50 at 48 h: COc1ccc(-c2csc(C3=C(C)NC(=O)NC3c3ccccc3)n2)cc1 (stereo not drawn)
Completion: ≥ 100 µM

Prompt: I'd like to know its CC50 at 48 h. The compound in question is COc1ccc(-c2csc(C3=C(C)NC(=O)NC3c3ccc(Cl)nc3)n2)cc1 (stereo not drawn)
Completion: 50 to 100 µM

Prompt: // query CC50 at 48 h value for entry CC1=C(c2nc(-c3ccc(F)cc3)cs2)C(c2cccc(O)c2)NC(=O)N1 (stereo not drawn)
Completion: 50 to 100 µM

Prompt: Name the reported CC50 at 48 h value associated with the compound CC1=C(c2nc(-c3ccc(C#N)cc3)cs2)C(c2ccc(Oc3ccccc3)nc2)NC(=O)N1 (stereo not drawn)
Completion: ≥ 100 µM

Prompt: Item COc1ncc(C2NC(=O)NC(C)=C2c2nc(-c3ccc(C#N)cc3)cs2)c(OC)n1 (stereo not drawn) has what recorded CC50 at 48 h?
Completion: ≥ 100 µM

Prompt: Quick one: CC50 at 48 h of COc1ccc(-c2csc(C3=C(C)NC(=O)NC3c3ccc(F)c([N+](=O)[O-])c3)n2)cc1 (stereo not drawn) ?
Completion: ≥ 100 µM

Prompt: Look up CC50 at 48 h for this compound: CC1=C(c2nc(-c3ccc(C#N)cc3)cs2)C(c2cccs2)NC(=O)N1 (stereo not drawn)
Completion: ≥ 100 µM

Prompt: CC50 at 48 h for COc1ncccc1C1NC(=O)NC(C)=C1c1nc(-c2ccc(C#N)cc2)cs1 (stereo not drawn) ?
Completion: ≥ 100 µM

Prompt: Bench note: what CC50 at 48 h did CC1=C(c2nc(-c3ccc(C#N)cc3)cs2)C(c2ccc(F)c(C#N)c2)NC(=O)N1 (stereo not drawn) show?
Completion: ≥ 100 µM

Prompt: Suppose we examine the compound COc1ccc(-c2csc(C3=C(C)NC(=O)NC3c3cccc(C(F)(F)F)c3)n2)cc1 (stereo not drawn) ; what CC50 at 48 h value has been reported?
Completion: ≥ 100 µM

Prompt: State the recorded CC50 at 48 h for this entry: CC1=C(c2nc(-c3cccc(O)c3)cs2)C(c2cccc(O)c2)NC(=O)N1 (stereo not drawn)
Completion: 50 to 100 µM

Prompt: Which CC50 at 48 h value belongs to CC1=C(c2nc(-c3ccc(C#N)cc3)cs2)C(c2ccc(Br)nc2)NC(=O)N1 (stereo not drawn) ?
Completion: ≥ 100 µM

Prompt: Bench note: what CC50 at 48 h did CC1=C(c2nc(-c3cccs3)cs2)C(c2cccc(O)c2)NC(=O)N1 (stereo not drawn) show?
Completion: ≥ 100 µM

Prompt: Value lookup for CC50 at 48 h; key = COc1ccc(C2NC(=O)NC(C)=C2c2nc(-c3ccc(C#N)cc3)cs2)cc1 (stereo not drawn)
Completion: < 50 µM

Prompt: CC50 at 48 h for CC1=C(c2nc(-c3ccc(C#N)cc3)cs2)C(c2ccnc(Cl)c2)NC(=O)N1 (stereo not drawn) ?
Completion: ≥ 100 µM

Prompt: So what's the measured CC50 at 48 h for this one? COc1ccc(-c2csc(C3=C(C)NC(=O)NC3c3ccc(-c4ccccc4)cc3)n2)cc1 (stereo not drawn)
Completion: ≥ 100 µM

Prompt: Consider the compound CC1=C(c2nc(-c3ccc(C#N)cc3)cs2)C(c2ccc(=O)[nH]c2)NC(=O)N1 (stereo not drawn) and give its measured CC50 at 48 h.
Completion: ≥ 100 µM

Prompt: Query (compound): CC1=C(c2nc(-c3ccc(C#N)cc3)cs2)C(c2ccnc3ccccc23)NC(=O)N1 (stereo not drawn) ; field requested: CC50 at 48 h
Completion: ≥ 100 µM

Prompt: State the recorded CC50 at 48 h for this entry: CC1=C(c2nc(-c3ccc(C#N)cc3)cs2)C(c2ccc(OCc3ccccc3)cc2)NC(=O)N1 (stereo not drawn)
Completion: ≥ 100 µM

Prompt: I am curious: what CC50 at 48 h value has been reported for COc1ccc(C2NC(=O)NC(C)=C2c2nc(-c3ccc(C#N)cc3C)cs2)cn1 (stereo not drawn) ?
Completion: < 50 µM

Prompt: // CC50 at 48 h lookup, key: CC1=C(c2nc(-c3ccc(C#N)cc3)cs2)C(c2cncc(F)c2)NC(=O)N1 (stereo not drawn)
Completion: ≥ 100 µM

Prompt: Entry under review: CC1=C(c2nc(-c3ccc([N+](=O)[O-])cc3)cs2)C(c2cccc(O)c2)NC(=O)N1 (stereo not drawn) . Reported CC50 at 48 h?
Completion: ≥ 100 µM
